Reference for the values: patent US8802597B2

Test system: velvetleaf (Abutilon theophrasti)
Method Notes: Test C pre/postemergence
Format: in vivo
Condition Set: Postemergence, 16 g ai/ha
Cut-off 70 on Plant response rating (scale of 0 to 100), Velvetleaf, inclusive. At or above means yes (1); below means no (0).

{"Molecule": "CCOC(=O)C(OC(C)=O)c1nc(C2CC2)nc(N)c1Br (centres unmarked)", "Discrete Label": "no (0)"}
{"Molecule": "COC(=O)c1nc(C2CC2)nc(N=CN(C)C)c1Br", "Discrete Label": "no (0)"}
{"Molecule": "CCOC(=O)c1nc(-c2ccc(I)cc2)nc(N)c1Cl", "Discrete Label": "yes (1)"}
{"Molecule": "Nc1nc(-c2ccc(Cl)cc2)nc(C(=O)[O-])c1Cl.[Na+]", "Discrete Label": "no (0)"}

###

Tested on: giant foxtail (Setaria faberii)
Method Notes: Test B pre/postemergence
Format: in vivo
Condition Set: Postemergence, 62 g ai/ha; scale 0 to 100 (0 no effect, 100 complete control)

{"Structure Smiles String": "Nc1nc(-c2ccc(Br)cc2)nc(C(=O)O)c1Br", "Foxtail, Giant plant response rating": 60}
{"Structure Smiles String": "Nc1nc(C2CC2)nc(C(=O)O)c1Cl", "Foxtail, Giant plant response rating": 80}
{"Structure Smiles String": "COC(=O)c1nc(-c2ccc(F)cc2)nc(N)c1Br", "Foxtail, Giant plant response rating": 20}
{"Structure Smiles String": "COC(=O)c1nc(-c2ccc(Cl)cc2)nc(N)c1Br", "Foxtail, Giant plant response rating": 40}

###

Tested on: pigweed (Amaranthus retroflexus)
Method Notes: Test B pre/postemergence
Type: in vivo
Condition Set: Preemergence, 125 g ai/ha; scale 0 to 100 (0 no effect, 100 complete control)
Each entry below carries its recorded Plant response rating, Pigweed.

{"Compound": "COC(OC)c1nc(C2CC2)nc(N)c1F", "Plant response rating, Pigweed": 80}
{"Compound": "CNN=Cc1nc(C2CC2)nc(N)c1Br", "Plant response rating, Pigweed": 90}
{"Compound": "COC(=O)c1nc(-c2ccc(F)cc2)nc(N)c1Br", "Plant response rating, Pigweed": 80}
{"Compound": "CCOC(=O)C(OC(C)=O)c1nc(C2CC2)nc(N)c1Br (stereo not shown)", "Plant response rating, Pigweed": 80}
{"Compound": "CCOC(=O)Cc1nc(-c2ccc(Cl)cc2)nc(N)c1Br", "Plant response rating, Pigweed": 0}
{"Compound": "CC(=O)NN=Cc1nc(C2CC2)nc(N)c1Br", "Plant response rating, Pigweed": 10}
{"Compound": "CCOC(=O)Cc1nc(C2CC2)nc(N)c1Br", "Plant response rating, Pigweed": 80}

###

Each entry below carries its recorded Plant response rating, Watergrass, Early.
System: early watergrass (Echinochloa oryzoides)
Method Notes: Test E flooded paddy water application
Assay type: in vivo
Condition Set: Flood, 16 g ai/ha; scale 0 to 100 (0 no effect, 100 complete control); 21 days
Parameter: Plant response rating, Watergrass, Early

{"Compound": "CCOC(=O)c1nc(-c2ccc(Cl)c(Cl)c2)nc(N)c1Cl [Compound 73]", "Parameter": "Plant response rating, Watergrass, Early", "Observed Measurement": 0}
{"Compound": "CCOC(=O)c1nc(-c2ccc(Cl)cc2Cl)nc(N)c1Cl [Compound 72]", "Parameter": "Plant response rating, Watergrass, Early", "Observed Measurement": 0}
{"Compound": "COC(=O)c1nc(-c2ccc(I)cc2)nc(N)c1Br [Compound 128]", "Parameter": "Plant response rating, Watergrass, Early", "Observed Measurement": 0}
{"Compound": "CCOC(=O)c1nc(-c2ccc(Cl)cc2F)nc(N)c1Br [Compound 69]", "Parameter": "Plant response rating, Watergrass, Early", "Observed Measurement": 0}
{"Compound": "CCOC(=O)c1nc(-c2ccc(F)cc2)nc(N)c1Br [Compound 63]", "Parameter": "Plant response rating, Watergrass, Early", "Observed Measurement": 0}
{"Compound": "Nc1nc(-c2ccc(Cl)cc2)nc(C(=O)OCc2ccccc2)c1Cl [Compound 118]", "Parameter": "Plant response rating, Watergrass, Early", "Observed Measurement": 0}
{"Compound": "CCOC(=O)c1nc(-c2ccc(CC)cc2)nc(N)c1Cl [Compound 99]", "Parameter": "Plant response rating, Watergrass, Early", "Observed Measurement": 0}
{"Compound": "COC(=O)c1nc(-c2ccc(Br)cc2)nc(N)c1Cl [Compound 96]", "Parameter": "Plant response rating, Watergrass, Early", "Observed Measurement": 0}
{"Compound": "CCOC(=O)c1nc(-c2ccc(Cl)cc2Cl)nc(N)c1Br [Compound 67]", "Parameter": "Plant response rating, Watergrass, Early", "Observed Measurement": 0}

###

Tested on: wheat (Triticum aestivum)
Method Notes: Test B pre/postemergence
Format: in vivo
Condition Set: Postemergence, 62 g ai/ha; scale 0 to 100 (0 no effect, 100 complete control)
Each entry below carries its recorded Wheat plant response rating.

{"Compound": "CCOC(=O)C(Cl)c1nc(C2CC2)nc(N)c1Br (stereo not drawn)", "Wheat plant response rating": 0}
{"Compound": "COC(=O)c1nc(-c2ccc(I)cc2)nc(N)c1Br", "Wheat plant response rating": 0}
{"Compound": "COC(=O)c1nc(-c2ccc(Br)cc2)nc(N)c1Br", "Wheat plant response rating": 0}
{"Compound": "Nc1nc(-c2ccc(Br)cc2)nc(C(=O)O)c1Br", "Wheat plant response rating": 20}
{"Compound": "CCCCOC(=O)c1nc(C2CC2)nc(N)c1Cl", "Wheat plant response rating": 60}
{"Compound": "COC(=O)c1nc(-c2ccc(Cl)cc2)nc(N)c1Br", "Wheat plant response rating": 0}

###

System: crabgrass (Digitaria sanguinalis)
Method Notes: Test B pre/postemergence
Type: in vivo
Condition Set: Digitaria sanguinalis, pre-emergence, Preemergence, 500 g ai/ha; scale 0 to 100 (0 no effect, 100 complete control); read-out: Crabgrass plant response rating
Each entry below carries its recorded pest or weed control at 500 g/ha.

{"Compound": "COC(=O)c1nc(C2CC2)nc(NO)c1Br [Compound 35]", "Scale Unit": "%", "pest or weed control at 500 g/ha": 80}
{"Compound": "COC(=O)c1nc(C2CC2)nc(N)c1Br [Compound 2]", "Scale Unit": "%", "pest or weed control at 500 g/ha": 90}
{"Compound": "CCOC(=O)c1nc(C(C)(C)C)nc(N)c1Br [Compound 36]", "Scale Unit": "%", "pest or weed control at 500 g/ha": 0}
{"Compound": "Nc1nc(C2CC2)nc(C(=O)O)c1Br [Compound 8]", "Scale Unit": "%", "pest or weed control at 500 g/ha": 90}
{"Compound": "CCOC(=O)c1nc(C2CC2)nc(N)c1F [Compound 30]", "Scale Unit": "%", "pest or weed control at 500 g/ha": 90}

###

Tested on: morningglory (Ipomoea coccinea)
Method Notes: Test C pre/postemergence
Assay type: in vivo
Condition Set: Preemergence, 125 g ai/ha; scale 0 to 100
Each entry below carries its recorded Plant response rating, Morningglory.
Parameter: Plant response rating, Morningglory

{"Compound": "CCOC(=O)Cc1nc(C2CC2)nc(N=CN(C)C)c1Br [Compound 33]", "Parameter": "Plant response rating, Morningglory", "Observed Measurement": 85}
{"Compound": "Nc1nc(C2CC2)nc(C=NO)c1Br [Compound 27]", "Parameter": "Plant response rating, Morningglory", "Observed Measurement": 70}
{"Compound": "CCCCOC(=O)c1nc(C2CC2)nc(N)c1Br [Compound 16]", "Parameter": "Plant response rating, Morningglory", "Observed Measurement": 100}
{"Compound": "COC(=O)c1nc(C2CC2C)nc(N)c1Br (stereo not shown) [Compound 28]", "Parameter": "Plant response rating, Morningglory", "Observed Measurement": 100}

###

System: giant foxtail (Setaria faberii)
Method Notes: Test C pre/postemergence
Format: in vivo
Condition Set: Preemergence, 250 g ai/ha; scale 0 to 100
Each entry below carries its recorded Plant response rating, Foxtail, Giant.
Parameter: Plant response rating, Foxtail, Giant

{"Compound": "CC(C)COC(=O)c1nc(C2CC2)nc(N)c1Br", "Parameter": "Plant response rating, Foxtail, Giant", "Observed Measurement": 75}
{"Compound": "COC(=O)c1nc(C2CC2C)nc(N)c1Br (stereo not shown)", "Parameter": "Plant response rating, Foxtail, Giant", "Observed Measurement": 0}
{"Compound": "CCCOC(=O)c1nc(C2CC2)nc(N)c1Br", "Parameter": "Plant response rating, Foxtail, Giant", "Observed Measurement": 65}
{"Compound": "CCCCOC(=O)c1nc(C2CC2)nc(N)c1Br", "Parameter": "Plant response rating, Foxtail, Giant", "Observed Measurement": 75}
{"Compound": "COC(=O)CNc1nc(C2CC2)nc(C(=O)OC)c1Br", "Parameter": "Plant response rating, Foxtail, Giant", "Observed Measurement": 0}
{"Compound": "CCOC(=O)C(Cl)c1nc(C2CC2)nc(N)c1Br (stereo not shown)", "Parameter": "Plant response rating, Foxtail, Giant", "Observed Measurement": 0}
{"Compound": "CCOC(=O)Cc1nc(C2CC2)nc(N=CN(C)C)c1Br", "Parameter": "Plant response rating, Foxtail, Giant", "Observed Measurement": 50}
